system: JSC-1 (B-Cell Non-Hodgkin's Lymphoma); test: combination Emax (second highest fraction inhibited in the dose matrix, 72 h); higher = more inhibition; extreme values may be limits of the assay
# Lookup of reported combination Emax keyed by entry
Answer with a number only.

Compound	combination Emax
CN(CCO)CC[C@H](CSc1ccccc1)Nc1ccc(S(=O)(=O)NC(=O)c2ccc(N3CCC([C@@H](O)c4ccccc4-c4ccc(Cl)cc4)CC3)cc2)cc1S(=O)(=O)C(F)(F)F [AZD4320] + C[C@@H]1COCCN1C2=NC(=NC(=C2)C3(CC3)[S@](=N)(=O)C)C4=C5C=CNC5=NC=C4 [AZD6738] (first compound max 1 µM, 7x7, partner max 10 µM)	0.888
Cn1cnc2c(F)c(Nc3ccc(Br)cc3Cl)c(C(=O)NOCCO)cc21 [Selumetinib] + CC(C)n1c(=O)n(C)c2cnc3cc(F)c(-c4ccc(OCCCN5CCCCC5)nc4)cc3c21 [AZD1390] (first compound max 10 µM, 7x7, partner max 0.3 µM)	0.584
CC1(C)CCC(CN2CCN(c3ccc(C(=O)NS(=O)(=O)c4ccc(NCC5CCOCC5)c([N+](=O)[O-])c4)c(Oc4cnc5[nH]ccc5c4)c3)CC2)=C(c2ccc(Cl)cc2)C1 [Venetoclax] + C[C@@H](Nc1cc(F)cc(F)c1)c1cc(C(=O)N(C)C)cc2c(=O)cc(N3CCOCC3)oc12 [AZD8186] (first compound max 1 µM, 7x7, partner max 3 µM)	0.0196

Sure, the documented combination Emax for CN(C)CCCOc1ccc(-c2ccc3ncc4c(c3c2)n(C2CCOCC2)c(=O)n4C)cn1 [AZD0156] + C=CCn1c(=O)c2cnc(Nc3ccc(N4CCN(C)CC4)cc3)nc2n1-c1cccc(C(C)(C)O)n1 [AZD1775] (first compound max 1 µM, partner max 1 µM) is 0.868

Sure, the documented combination Emax for CCN(CCO)CCCOc1ccc2c(Nc3cc(CC(=O)Nc4cccc(F)c4)[nH]n3)ncnc2c1 [AZD2811] + C=CCn1c(=O)c2cnc(Nc3ccc(N4CCN(C)CC4)cc3)nc2n1-c1cccc(C(C)(C)O)n1 [AZD1775] (first compound max 1 µM, partner max 1 µM) is 0.809

Sure, the documented combination Emax for COc1cccc2c1C(=O)c1c(O)c3c(c(O)c1C2=O)C[C@@](O)(C(=O)CO)C[C@@H]3O[C@H]1C[C@H](N)[C@H](O)[C@H](C)O1 [Doxorubicin] + Cc1cc2ncnn2cc1Nc1ncc2c(n1)n(C1CCOCC1)c(=O)n2C [AZD7648] (first compound max 1 µM, 7x7, partner max 10 µM) is 0.97

Sure, the documented combination Emax for COc1cccc(OCCCN)c1-c1cc(Nc2cnc(C#N)cn2)n[nH]1 [Prexasertib] + C=CCn1c(=O)c2cnc(Nc3ccc(N4CCN(C)CC4)cc3)nc2n1-c1cccc(C(C)(C)O)n1 [AZD1775] (first compound max 1 µM, partner max 1 µM) is 0.998

---

system: NCI-H64 (Small Cell Lung Carcinoma); assay: combination Emax (second highest fraction inhibited in the dose matrix, 72 h); higher = more inhibition; extreme values may be limits of the assay
Endpoint Label: combination Emax
Answer with a number only.

Examples with their reported combination Emax follow.
Compound	Recorded Measurement
C[C@@H]1COCCN1c1cc(C2([S@](C)(=N)=O)CC2)nc(-c2ccnc3[nH]ccc23)n1 [AZD6738] + Nc1ccn([C@@H]2O[C@H](CO)[C@@H](O)C2(F)F)c(=O)n1 [Gemcitabine] (first compound max 10 µM, 7x7, partner max 0.3 µM)	0.936
CC1(C)CCC(CN2CCN(c3ccc(C(=O)NS(=O)(=O)c4ccc(NCC5CCOCC5)c([N+](=O)[O-])c4)c(Oc4cnc5[nH]ccc5c4)c3)CC2)=C(c2ccc(Cl)cc2)C1 [Venetoclax] + C1CN(CCC1(C(=O)N[C@@H](CCO)C2=CC=C(C=C2)Cl)N)C3=NC=NC4=C3C=CN4 [Capivasertib] (first compound max 1 µM, 7x7, partner max 3 µM)	0.361

Proceed to the following item.
Sure, the documented combination Emax for CCc1c2c(nc3ccc(O)cc13)-c1cc3c(c(=O)n1C2)COC(=O)[C@]3(O)CC [SN-38] + CN(C)CCCOc1ccc(-c2ccc3ncc4c(c3c2)n(C2CCOCC2)c(=O)n4C)cn1 [AZD0156] (first compound max 0.3 µM, 7x7, partner max 1 µM) is 0.407

---

# Lookup of reported Bliss excess keyed by entry
tested on: A498 (Kidney Carcinoma); test: Bliss excess, mean over the matrix (fraction); higher = more synergy;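 note: after 72 h of two-drug dosing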
Answer with a number only.

Examples with their reported Bliss excess follow.
Molecule	Endpoint Label	Recorded Measurement
CN(CCO)CC[C@H](CSc1ccccc1)Nc1ccc(S(=O)(=O)NC(=O)c2ccc(N3CCC([C@@H](O)c4ccccc4-c4ccc(Cl)cc4)CC3)cc2)cc1S(=O)(=O)C(F)(F)F [AZD4320] + C[C@@H]1COCCN1C2=NC(=NC(=C2)C3(CC3)[S@](=N)(=O)C)C4=C5C=CNC5=NC=C4 [AZD6738] (first compound max 1 µM, 7x7, partner max 10 µM)	Bliss excess	-0.157
Cc1c2c(nn1C)CSCc1cc(n(C)n1)CSc1cc(c3ccccc3c1)OCCCc1c(C(=O)O)n(C)c3c-2c(Cl)ccc13 [AZD5991] + C[C@@H]1COCCN1C2=NC(=NC(=C2)C3(CC3)[S@](=N)(=O)C)C4=C5C=CNC5=NC=C4 [AZD6738] (first compound max 1 µM, 7x7, partner max 10 µM)	Bliss excess	0.107
CC(=O)Nc1cccc(-n2c(=O)n(C3CC3)c(=O)c3c(Nc4ccc(I)cc4F)n(C)c(=O)c(C)c32)c1 [Trametinib] + Cc1nc(-c2cn3c(n2)-c2ccc(-c4cnn(C(C)(C)C(N)=O)c4)cc2OCC3)n(C(C)C)n1 [Taselisib] (first compound max 1 µM, 7x7, partner max 10 µM)	Bliss excess	0.0344

Proceed to the following item.
Sure, the documented Bliss excess for COc1cc2ncnc(Nc3ccc(F)c(Cl)c3)c2cc1OCCCN1CCOCC1 [Gefitinib] + CC(C)n1c(=O)n(C)c2cnc3cc(F)c(-c4ccc(OCCCN5CCCCC5)nc4)cc3c21 [AZD1390] (first compound max 10 µM, 7x7, partner max 0.3 µM) is -0.11

---

# Lookup of reported combination Emax keyed by entry
system: BICR22 (Oral Cavity Carcinoma); assay: combination Emax (second highest fraction inhibited in the dose matrix, 72 h); higher = more inhibition; extreme values may be limits of the assay

Compound	combination Emax
COc1nnc2ccc(N3CCC(c4ccc(OCCN5CCN(C)C(=O)[C@H]5C)cc4)CC3)nn12 [AZD5153] + CCN(CCO)CCCOc1ccc2c(Nc3cc(CC(=O)Nc4cccc(F)c4)[nH]n3)ncnc2c1 [AZD2811] (first compound max 1 µM, 7x7, partner max 1 µM)	0.463
COc1cc2c(cc1OCCCCCOc1cc3c(cc1OC)C(=O)N1C=C(C)C[C@H]1C=N3)N=C[C@@H]1CC(C)=CN1C2=O [SG3199] + O=C(c1cc(Cc2n[nH]c(=O)c3ccccc23)ccc1F)N1CCN(C(=O)C2CC2)CC1 [Olaparib] (first compound max 0.001 µM, 7x7, partner max 10 µM)	0.124
C[C@@H](Nc1cc(F)cc(F)c1)c1cc(C(=O)N(C)C)cc2c(=O)cc(N3CCOCC3)oc12 [AZD8186] + C1CN(CCC1(C(=O)N[C@@H](CCO)C2=CC=C(C=C2)Cl)N)C3=NC=NC4=C3C=CN4 [AZD5363] (first compound max 10 µM, 7x7, partner max 10 µM)	0.308
CN(CCO)CC[C@H](CSc1ccccc1)Nc1ccc(S(=O)(=O)NC(=O)c2ccc(N3CCC([C@@H](O)c4ccccc4-c4ccc(Cl)cc4)CC3)cc2)cc1S(=O)(=O)C(F)(F)F [AZD4320] + C=CCn1c(=O)c2cnc(Nc3ccc(N4CCN(C)CC4)cc3)nc2n1-c1cccc(C(C)(C)O)n1 [AZD1775] (first compound max 1 µM, partner max 1 µM)	0.882
C[C@@H]1COCCN1c1cc(C2([S@](C)(=N)=O)CC2)nc(-c2ccnc3[nH]ccc23)n1 [AZD6738] + O=C(c1cc(Cc2n[nH]c(=O)c3ccccc23)ccc1F)N1CCN(C(=O)C2CC2)CC1 [Olaparib] (first compound max 10 µM, 7x7, partner max 10 µM)	0.711

Proceed to the following item.
Sure, the documented combination Emax for NC1(C(=O)N[C@@H](CCO)c2ccc(Cl)cc2)CCN(c2ncnc3[nH]ccc23)CC1 [Capivasertib] + CC(C)n1c(=O)n(C)c2cnc3cc(F)c(-c4ccc(OCCCN5CCCCC5)nc4)cc3c21 [AZD1390] (first compound max 10 µM, 7x7, partner max 0.3 µM) is 0.312

---

system: CAL-29 (Bladder Carcinoma); assay: combination Emax (second highest fraction inhibited in the dose matrix, 72 h); higher = more inhibition; extreme values may be limits of the assay
# Lookup of reported combination Emax keyed by entry
Answer with a number only.

combination Emax value, target or system CAL-29 (Bladder Carcinoma), for CC(=O)c1c(C)c2cnc(Nc3ccc(N4CCNCC4)cn3)nc2n(C2CCCC2)c1=O [Palbociclib] + CC1(C)CCC(CN2CCN(c3ccc(C(=O)NS(=O)(=O)c4ccc(NCC5CCOCC5)c([N+](=O)[O-])c4)c(Oc4cnc5[nH]ccc5c4)c3)CC2)=C(c2ccc(Cl)cc2)C1 [Venetoclax] (first compound max 10 µM, 7x7, partner max 1 µM) : 0.0999
